# credit: patent US20260242478A1

Target: T1, PSMA Fab (biotinylated (site not stated))
T1 construct: also called Anti-PSMA Fab; 006 PSMA Fab
Test: clonal phage ELISA on biotinylated PSMA Fab captured on neutravidin plates, blocking buffer alone, anti-M13-HRP detection
Where no end group is shown, it is not given here.
The following binders are listed with their measured phage binding ELISA signal values.
Give a plain numeric answer without units written out.

Example entries begin here.
# Binder, phage binding ELISA signal
data = [
    ("VGKWCVPMWMCATD (cysteine pairing not given here; also: fused to phage pIII, linker and fusion site not given here, Clonal phage displaying the peptide, tested as crude supernatant; also called peptide-180 library clone; not shown: fused to the pIII filament protein of the bacteriophage) [Phage-2587]", 1.06),
    ("EVMWCRPAWMCDGI (Clonal phage displaying the peptide, tested as crude supernatant; also called peptide-180 library clone; not shown: fused to the pIII filament protein of the bacteriophage) [Phage-2583]", 1.07),
]

The record that follows has no phage binding ELISA signal shown yet.
Given the entry GPKWCTPPWMCWEF (Clonal phage displaying the peptide, tested as crude supernatant; also called peptide-180 library clone; not shown: fused to the pIII filament protein of the bacteriophage) [Phage-2579] , report its measured phage binding ELISA signal. 1.08
